target: T1, GST fusion of the EtAMA1-binding peptide of EtRON2 (Eimeria tenella, UniProt P08515 1-218 = GST); assay: phage ELISA, wells coated with GST-RON2 peptide
T1 construct: Expressed in E. coli, purified as the other antigens but without TEV cleavage, so a His tag and TEV site probably remain; also called GST-RON2 peptide
T1 sequence (P08515 1-218, tags or fused parts left off): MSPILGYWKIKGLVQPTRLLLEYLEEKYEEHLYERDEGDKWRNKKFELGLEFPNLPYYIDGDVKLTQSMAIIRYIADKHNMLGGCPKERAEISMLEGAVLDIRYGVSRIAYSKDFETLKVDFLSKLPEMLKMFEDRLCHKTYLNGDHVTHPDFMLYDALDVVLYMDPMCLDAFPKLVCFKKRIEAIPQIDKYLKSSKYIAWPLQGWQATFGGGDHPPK
In this section we review reported binding relative to GST-coated wells values for a set of binders.

Would you kindly share the measured binding relative to GST-coated wells for NBX16040 (VHH) VHH: QVQLQESGGGMVQAGGSLRLSCAASGTTITINTMRWYRQPPGKERELVASIVPSGKTYYADSVKGRFTISRDNHKNTMYLQMNSLKPEDTAVYYCNSDGRFRGIGTYWGQGTQVTVSS ?
≥ 3 times

Also check NBX16037 (VHH) VHH: QVQLQQSGGGLVQAGGSLRLSCAASGSIFSINVIGWYRQVPGKERELVAKSDRTTKYADSVKGRFTISRDNAKNTVDLQMNSLKPEDTAVYYCNAVVTSRTSQGLRSYAYWGQGTQVTVSS
≥ 3 times

Also check NBX16039 (VHH) VHH: QVQLQQSGGGLVQAGGSLRLSCTTSGIIFSFSLLNVGWYRQAPGKERELVARMSTAGNTYYSTSVKDRFTISRDNGKNTVDLQMNSLNADDTAVYYCNLRRSWAPSDSGFWGQGTQVFVSS
≥ 3 times
